Biological target: Chymase (Homo sapiens)
Sequence (P23946 whole entry): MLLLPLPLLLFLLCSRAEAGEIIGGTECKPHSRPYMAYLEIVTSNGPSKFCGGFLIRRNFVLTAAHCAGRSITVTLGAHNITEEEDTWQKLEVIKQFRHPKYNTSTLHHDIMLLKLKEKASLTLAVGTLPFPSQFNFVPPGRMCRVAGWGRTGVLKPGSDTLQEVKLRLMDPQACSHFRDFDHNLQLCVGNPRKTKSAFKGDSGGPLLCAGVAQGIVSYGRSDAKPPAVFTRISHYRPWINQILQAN
Experiment: inhibitory activity was evaluated against chymase from human heart.
pKi: −log10 of the molar value.
A collection of compounds and their measured pKi
Recorded Metric: pKi

1. Nc1cnc(-c2ccc(F)cc2)n(CC(=O)NC(Cc2ccccc2)C(=O)c2nc3cc(-c4ccccc4)ccc3o2)c1=O (stereo not drawn); 6.76
2. CC(C)C[C@H](NC(=O)[C@@H](NC(=O)N[C@@H](Cc1ccccc1)C(=O)O)C1CCN=C(N)N1)C(=O)N[C@H](C=O)Cc1ccccc1 (stereo partly drawn); 7.88
3. COC(=O)c1ccc2oc(C(=O)C(Cc3ccccc3)NC(=O)Cn3c(-c4cccnc4)ncc(N)c3=O)nc2c1 (stereo not drawn); 7.11

----------
Each entry below carries its measured Ki, system: UniProt:P23946.
Recorded Metric: Ki (nM)

1) COC(=O)c1ccc2oc(C(=O)C(Cc3ccccc3)NC(=O)Cn3c(-c4cccc(OC)c4)ncc(N)c3=O)nc2c1 (configuration not stated); 1.12
2) COC(=O)c1ccc2oc(C(=O)C(Cc3ccccc3)NC(=O)Cn3c(-c4ccc(F)cc4)ncc(N)c3=O)nc2c1 (configuration not stated); 3.68

----------
experiment: Oral Bioavailability was determined; type: ADME, organism-based; details: rat, in vivo, read-out: BA
Recorded Metric: bioavailability (%)

1. COC(=O)c1ccc2oc(C(=O)C(Cc3ccccc3)NC(=O)Cn3c(-c4cccc(OC)c4)ncc(N)c3=O)nc2c1 (stereo unspecified); 19.3

----------
molecular target: Chymase (Homo sapiens); test: Inhibitory activity evaluated against chymase from human heart.
A collection of compounds and their measured log10 of Ki
Recorded Metric: log10 of Ki (log10 of the value in nM)

1. CCOC(=O)c1ccc2oc(C(=O)C(Cc3ccccc3)NC(=O)Cn3c(-c4ccc(F)cc4)ncc(N)c3=O)nc2c1 (stereo not given); 1.48
2. CCN(CC)C(=O)c1ccc2oc(C(=O)C(Cc3ccccc3)NC(=O)Cn3c(-c4ccc(F)cc4)ncc(N)c3=O)nc2c1 (stereo not given); 1.77
3. CCNC(=O)c1ccc2oc(C(=O)C(Cc3ccccc3)NC(=O)Cn3c(-c4ccc(F)cc4)ncc(N)c3=O)nc2c1 (stereo not given); 1.84
4. COC(=O)c1ccc2oc(C(=O)C(Cc3ccccc3)NC(=O)Cn3c(-c4ccc(F)cc4)ncc(N)c3=O)nc2c1 (stereo not given); 1.35
5. COC(=O)c1ccc2oc(C(=O)C(Cc3ccccc3)NC(=O)Cn3c(-c4cccc(OC)c4)ncc(N)c3=O)nc2c1 (stereo not given); 0.69
6. COC(=O)c1ccc2oc(C(=O)C(Cc3ccccc3)NC(=O)Cn3c(-c4ccncc4)ncc(N)c3=O)nc2c1 (stereo not given); 1.64
7. Nc1cnc(-c2ccc(F)cc2)n(CC(=O)NC(Cc2ccccc2)C(=O)c2nc3ncccc3o2)c1=O (stereo not given); 1.78
8. NC(=O)c1ccc2oc(C(=O)C(Cc3ccccc3)NC(=O)Cn3c(-c4ccc(F)cc4)ncc(N)c3=O)nc2c1 (stereo not given); 1.97
9. COC(=O)c1ccc2oc(C(=O)C(Cc3ccccc3)NC(=O)Cn3c(-c4cccc(N)c4)ncc(N)c3=O)nc2c1 (stereo not given); 0.75
10. COC(=O)c1ccc2oc(C(=O)C(Cc3ccccc3)NC(=O)Cn3c(-c4cccc(C)c4)ncc(N)c3=O)nc2c1 (stereo not given); 1.65
